Experiment: VP16 transactivation inhibitors, counter-screen for SRC1 inhibitor project, cell-based, luminescence, high throughput (AID 588824)
Conditions: cell-based VP16 transactivation luciferase luminescence; at 3.6 µM
Calls of active or inactive are those of the source. No stated cut-off is given here; in the data, active means inhibition above about 25%; inactive means the rest.
Answer with one of the outcomes label 1 (active), label 0 (inactive)

>>> print(df.to_string())
                                   compound  qualitative_label
0       Clc1ccccc1C1=Nn2c(nnc2-c2ccncc2)SC1            label 1
1    Cc1ccc(-c2cc(C(=O)NCCCN3CCOCC3)no2)cc1            label 0
2            O=S(=O)(NCc1ccncc1)c1ccc(Br)s1            label 1
3  COc1ccc(CN2CCN(C(=O)c3ccc(S(=O)(=O)N4CCCCCC4)cc3)CC2)cc1            label 1
4  CCCNC1=C(N(C(C)=O)c2cccc(F)c2)C(=O)c2ccccc2C1=O            label 1

Enquiry: Dear all, I need the recorded test outcome for O=C(Nc1ccc(N2CCN(C(=O)c3ccccc3F)CC2)cc1)c1cncc(Br)c1 , thank you.
Return: label 1

Enquiry: Answer briefly: the call reported for CN(C)CCNc1ccc2ncn3c4ccc(O)cc4c(=O)c1c23 in this assay.
Return: label 1

Enquiry: I would be grateful if you could indicate the recorded call for Cc1c(/C(O)=C2/C(=O)C(=O)N(CCN3CCOCC3)C2c2ccccn2)cnn1-c1ccccc1 (configuration not stated) .
Return: label 1

Enquiry: Test call, this compound: CS(=O)(=O)Nc1ccc(-c2cnc3cccnn23)cc1
Return: label 1

Enquiry: Dear all, I need the recorded test outcome for Cc1cc(CNC(=O)c2cccc([N+](=O)[O-])c2C)c2ccccc2n1 , thank you.
Return: label 1

Enquiry: Lab log entry: O=C(O)CNC(=O)c1cccc(C(F)(F)F)c1 — outcome as called in the assay?
Return: label 0

Enquiry: Hi, do you know how COc1ccc(C(=O)Oc2ccc(/C=N/NC(=O)c3ccccc3OC)cc2[N+](=O)[O-])cc1 came out in this test?
Return: label 0

Enquiry: Just curious, what result did NC(=O)c1cc([N+](=O)[O-])ccc1NCc1ccc(O)cc1 get here?
Return: label 1

Enquiry: Look up the recorded call for COc1ccc(OC)c(/C=N/NC(=O)c2cc3c(OC)cccc3[nH]2)c1 in this test.
Return: label 0

Enquiry: Please let me know the test result on file for CCc1nc(Cl)c(C#N)c2c1CCCC2 .
Return: label 1

Enquiry: # fetch the recorded call for O=C(Nc1ccc(Cl)c(Cl)c1)c1cccc(S(=O)(=O)NCc2cccnc2)c1 here
Return: label 1

Enquiry: Outcome? CCOc1c(Br)cc(CNc2ccc3c(c2)OCCO3)cc1OC
Return: label 0

Enquiry: Could you kindly confirm the outcome this assay logged for CCN1/C(=C/c2ccc3cc(C)ccc3[n+]2CC)Sc2cc(C)c(C)cc21 ?
Return: label 1

Enquiry: Look up the recorded call for COCCNC(=O)c1c[nH]c2ccc(S(=O)(=O)N3CCc4ccccc43)cc2c1=O in this test.
Return: label 1

Enquiry: State the result this test recorded for C=C(C)c1cccc(C(C)(C)NC(=O)N(Cc2ccccc2)Cc2ccco2)c1 .
Return: label 0

Enquiry: Recorded test outcome, item Cc1nc(N=C(N)N)nc2ccccc12
Return: label 0

Enquiry: Lab log entry: N=c1c2c(-c3ccccc3)c(-c3ccccc3)n(Cc3ccccc3)c2ncn1CCCO — outcome as called in the assay?
Return: label 1

Cited source for all entries: PubChem BioAssay
